IC50 for assorted compounds
Target system: human recombinant GPR65 (Homo sapiens)
Test description: Human GPR65 cAMP HTRF antagonist assay
Setup conditions: 1321N1-hrGPR65 cells stimulated at assay pH 7.2; suppression of cAMP rise; read-out: hGPR65 IC50

Given smiles	IC50
O=C(Nc1ccc(Cl)c(Cl)c1)N1CCc2ccc(O)cc2C1	0.5 to 5 µM

May I ask what IC50 has been recorded for O=C(Nc1ccc(Cl)c(C(F)(F)F)c1)N1CCc2c(Cl)cccc2C1 ?
> 5 µM

Request: O=C(Nc1ccc(Cl)c(Cl)c1)N1CCc2nocc2C1
0.5 to 5 µM

Likewise for O=C(Nc1cc(Cl)c(Cl)cc1C(F)(F)F)N1CCc2cc(=O)[nH]cc2C1 ?
> 5 µM

Another compound to check: O=C(Nc1ccc(Cl)c(Cl)c1)N1CCc2nonc2C1
0.5 to 5 µM

----------
The molecules listed here are annotated with their pIC50.
Target system: human recombinant GPR65 (Homo sapiens)
Test description: Human GPR65 cAMP HTRF antagonist assay
Setup conditions: 1321N1-hrGPR65 cells stimulated at assay pH 7.2; suppression of cAMP rise; read-out: hGPR65 IC50
pIC50: −log10 of the molar value.

Given smiles	Assay value
O=C(Nc1ccc(C(F)(F)F)c(Cl)c1)N1CCc2ccnc(Cl)c2C1	< 5.30

Param item = Cc1ccc2c(c1)CCN(C(=O)Nc1ccc(Cl)c(Cl)c1)C2 ; retrieve measured pIC50.
5.30 to 6.30

O=C(Nc1ccc(Cl)c(C(F)(F)F)c1)N1CCc2cccc(F)c2C1 ?
< 5.30

Could you do the same for N#Cc1cccc2c1CCN(C(=O)Nc1ccc(Cl)c(C(F)(F)F)c1)C2 , please?
5.30 to 6.30

----------
Target system: human recombinant GPR65 (Homo sapiens)
Test description: Human GPR65 cAMP HTRF antagonist assay
Setup conditions: 1321N1-hrGPR65 cells stimulated at assay pH 7.2; suppression of cAMP rise; read-out: hGPR65 IC50
Assay endpoint: IC50

For orientation, consider the following solved cases.
Compound	Assay value
Cc1noc(-c2ccc3c(c2)CCN(C(=O)Nc2ccc(Cl)c(Cl)c2)C3)n1 [Compound 140]	< 500 nM
COc1ccc2c(c1)CCN(C(=O)Nc1ccc(C(F)(F)F)c(Cl)c1)C2 [Compound 67]	500 to 5000 nM
O=C(Nc1ccc(Cl)c(Cl)c1)N1CCc2cn3cnnc3cc2C1 [Compound 116]	> 5000 nM
O=C(Nc1ccc(Cl)c(Cl)c1)N1CCc2[nH]c(=O)ncc2C1 [Compound 88]	500 to 5000 nM

Please turn your attention to the following entry.
// lookup IC50 for O=C(Nc1ccc(Cl)c(Cl)c1)N1CCc2cccc(F)c2C1 [Compound 45]
500 to 5000 nM

----------
Target system: human recombinant GPR65 (Homo sapiens, UniProt Q8IYL9)
Sequence (Q8IYL9 whole entry): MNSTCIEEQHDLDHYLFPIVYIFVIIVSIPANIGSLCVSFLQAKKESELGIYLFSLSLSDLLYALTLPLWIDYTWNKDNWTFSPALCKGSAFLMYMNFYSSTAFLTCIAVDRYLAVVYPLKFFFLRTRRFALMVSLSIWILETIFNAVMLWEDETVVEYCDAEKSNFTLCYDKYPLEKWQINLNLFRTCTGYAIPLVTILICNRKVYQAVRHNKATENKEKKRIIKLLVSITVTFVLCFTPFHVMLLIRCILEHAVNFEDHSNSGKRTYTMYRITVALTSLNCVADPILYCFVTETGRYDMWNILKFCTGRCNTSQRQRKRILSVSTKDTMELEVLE
Test description: Human GPR65 cAMP HTRF antagonist assay
Setup conditions: 1321N1-hrGPR65 cells stimulated at assay pH 7.2; suppression of cAMP rise; read-out: hGPR65 IC50
pIC50: −log10 of the molar value.
# Lookup of reported pIC50 keyed by entry

Given smiles	Assay value
O=C(Nc1ccc(Cl)c(Cl)c1)N1CCc2cncnc2C1	< 5.30
O=C(Nc1ccc(Cl)c(Cl)c1)N1CCc2[nH]c(=O)ccc2C1	< 5.30
N#Cc1ccc2c(c1)CCN(C(=O)Nc1ccc(Cl)c(Cl)c1)C2	> 6.30
O=C(Nc1ccc(Cl)c(Cl)c1F)N1CCc2cc(=O)[nH]cc2C1	5.30 to 6.30
O=C(Nc1ccc(Cl)cc1)N1CCc2ncncc2C1	< 5.30

Could you now look at the following molecule, please?
What value of pIC50 has been reported for the following molecule? O=C(Nc1ccc(Cl)c(Cl)c1)N1CCc2ncccc2C1
< 5.30

Origin of measurements: patent US20230174530A1
